Observed pKi for Cannabinoid receptor 1 (Homo sapiens, UniProt P21554), reported per entry below.
pKi: −log10 of the molar value.
REPORTED_ENDPOINT: pKi

Cc1c(C(=O)NN2CCCCC2)nn(C2CCCCC2)c1-c1ccccc1 = 6.22
Cc1ccc(Cn2nc(C(=O)NC3CC4CCC3(C)C4(C)C)c(C)c2-c2ccc(Cl)c(C)c2)cc1 (stereo not given) = 6.40
CCCCCn1nc(C(=O)NN2CCCCC2)cc1-c1ccccc1 = 6.59
CCCn1nc(C(=O)NN2CCCCC2)c(C)c1-c1ccccc1 = 5.45
CCCCCn1nc(C(=O)NN2CCCCC2)c(C)c1-c1ccc(Br)cc1 = 7.09
COCc1c(C(=O)NC2CCCCC2)nn(-c2ccc(Cl)cc2Cl)c1C1C2(C)CCC(C2)C1(C)C (stereo not given) = 6.62
O=C(NN1CCCCC1)c1nn(-c2ccc(Cl)cc2Cl)c2c1CCCc1cc([N+](=O)[O-])ccc1-2 = 7.20
Cc1c(C(=O)N(C)c2ccccc2)nn(-c2ccc(Cl)cc2Cl)c1-c1ccc(Br)cc1 = 7.51
Cc1c(C(=O)NN2CCCCC2)nn(-c2ccc(Cl)cc2Cl)c1-c1ccc(N)cc1 = 7.09
CCCCCCCn1nc(C(=O)NN2CCCCC2)c(C)c1-c1ccccc1 = 6.69

###

Observed Ki for Cannabinoid receptor 1 (Homo sapiens), reported per entry below.
REPORTED_ENDPOINT: Ki

Cc1c(C(=O)NN2CCOCC2)nn(-c2ccc(Cl)cc2Cl)c1-c1ccccc1Br = 11.7 nM
Cc1c(C(=O)NCCO)nn(-c2ccc(Cl)cc2Cl)c1-c1ccc(Br)cc1 = 1120 nM
Cc1c(C(=O)NN)nn(-c2ccc(Cl)cc2Cl)c1-c1ccc(Cl)cc1 = 374 nM
COc1ccc(-c2c(F)c(C(=O)NN3CCCCC3)nn2-c2ccc(Cl)cc2Cl)cc1 = 18.2 nM

###

pKi: −log10 of the molar value.
Observed pKi for Cannabinoid receptor 1 (Homo sapiens, UniProt P21554), reported per entry below.
REPORTED_ENDPOINT: pKi

Cc1c(C(=O)Nc2ccc(-c3ccsc3)cc2)nn(CCCCCCl)c1-c1ccccc1 = 7.70
CCCCCCCn1nc(C(=O)NN2CCCCC2)cc1-c1ccccc1 = 6.49
Cc1c(NC(=O)N2CCCCC2)nn(-c2ccc(Cl)cc2Cl)c1-c1ccc(Br)cc1 = 7.33
Cc1c(C(=O)NCC23CC4CC(CC(C4)C2)C3)nn(CCCCCCl)c1-c1ccccc1 = 8.22
O=C(NC1CCCCC1)c1nn(-c2ccc(Cl)cc2Cl)c(-c2ccc(Br)cc2)c1CO = 8.22

From: ChEMBL document CHEMBL3046337
